System: NCI-H226 lung
protocol details: NCI tumour cell line growth inhibition, 48 h; in the data active means GI50 below about 0.43 µM; inactive means the rest
Assign a class; possible classes are t = active, f = inactive

Write down the call the test reported for this compound. Item: COC(=O)C1=C(C(=O)OC)SC(=C(Cl)C(=S)Sc2ccccc2N)S1
f

Entry COc1cc2nc(-c3ccc(C(F)(F)F)cc3)cc(OCCCN3CCCCC3)c2cc1OC : call = ?
t

Outcome? CCC(c1cccc(O)c1)C(CC)c1cccc(O)c1 (stereo not given)
f

// outcome(item) with item = O=C1CC(=O)OC(c2ccc([N+](=O)[O-])cc2)O1
f

Per the assay record, what outcome was assigned to COC(=O)CCC1=C(C)/C(=C/c2[nH]c(-c3ccc[nH]3)cc2OC)N=C1C ?
t

This collection of values is drawn from PubChem BioAssay (NCI).
